pKi: recorded values
- ASSAY_NOTES: Binding affinity against PCP receptor using [3H]TCP as radioligand.
Just so you know, pKi here is -log10 of the concentration in molar units; reply with that number alone.

Here's what some known entries look like.
Requested field: pKi. Item: `C=C[C@@H](C)N1CC[C@@]2(C)c3cc(O)ccc3C[C@H]1[C@H]2C`
6.70

Requested field: pKi. Item: `C=CCN1CC[C@@]2(C)c3cc(O)ccc3C[C@H]1[C@H]2C`
6.65

Requested field: pKi. Item: `C=C[C@H](C)N1CC[C@]2(C)c3cc(O)ccc3C[C@@H]1[C@@H]2C`
5.66

Requested field: pKi. Item: `C[C@H]1[C@H]2Cc3ccc(O)cc3[C@]1(C)CCN2CC1CC1`
6.97

Requested field: pKi. Item: `C=CCN1CC[C@]2(C)c3cc(O)ccc3C[C@@H]1[C@@H]2C`
6.30

New cases:
Requested field: pKi. Item: `C[C@H]1[C@H]2Cc3ccc(O)cc3[C@@]1(C)CCN2CCCc1ccccc1`
5.44

Requested field: pKi. Item: `C=C[C@H](C)N1CC[C@@]2(C)c3cc(O)ccc3C[C@H]1[C@H]2C`
7.05
